Molecular target: recombinant human GST-SYK (Homo sapiens (Human), UniProt P43405)
Experiment: Homogeneous Time-Resolved Fluorescence (HTRF) assay for the recombinant human Syk enzyme
Description: Homogeneous Time-Resolved Fluorescence (HTRF) Assay for the Recombinant Human Syk Enzyme A recombinant GST-hSYK fusion protein was used to measure potency of compounds to inhibit human Syk activity. […] Final volume of the reaction was 10 μL. […] Final volume of the quenching solution was […]. The resulting HTRF signal was measured after 30 minutes on an EnVision (Perkin-Elmer) reader using a time-resolved fluorescence protocol.
pIC50: −log10 of the molar value.

>  <molecule>
COCc1cc(Nc2cc(C(F)(F)F)ccn2)nc(-c2cnc([C@]3(O)CC[C@@H](C(=O)OC)C(C)(C)C3)s2)c1 (single isomer, unassigned)

>  <pIC50>
5.93

$$$$
